assay procedure: Therapeutic index, ratio of IC50 for mouse Peritoneal macrophages to IC50 for SSG-resistant Leishmania donovani 39 amastigote infected in mouse peritoneal macrophages
test context: read-out: Ratio IC50
property label: selectivity ratio

Look over these answered cases.
Bench note: what selectivity ratio did O=c1cc(-c2ccc(OCCOCCN(CCOCCOc3ccc(-c4cc(=O)c5ccccc5o4)cc3)Cc3cccnc3)cc2)oc2ccccc12 show?
13.8

Note, next up: O=c1cc(-c2ccc(OCCOCCN(CCOCCOc3ccc(-c4cc(=O)c5ccccc5o4)cc3)Cc3ccccn3)cc2)oc2ccccc12
> 8

Also N#Cc1cc(CN(CCOCCOc2ccc(-c3cc(=O)c4ccccc4o3)cc2)CCOCCOc2ccc(-c3cc(=O)c4ccccc4o3)cc2)ccn1 , if possible.
> 12.1

What would you report for O=c1cc(-c2cccc(OCCOCCN(CCOCCOc3cccc(-c4cc(=O)c5ccccc5o4)c3)Cc3ccncc3)c2)oc2ccccc12 ?
> 21.7

How about O=c1c(OCCOCCN(CCOCCOc2c(-c3ccccc3)oc3ccccc3c2=O)Cc2ccncc2)c(-c2ccccc2)oc2ccccc12 ?
> 10.6

Further cases:
So what's the measured selectivity ratio for this one? O=c1cc(-c2ccc(OCCN(CCOc3ccc(-c4cc(=O)c5ccccc5o4)cc3)Cc3ccncc3)cc2)oc2ccccc12
> 10

Then what about the compound O=c1cc(-c2ccc(OCCOCCN(CCOCCOc3ccc(-c4cc(=O)c5ccccc5o4)cc3)Cc3ccncc3Br)cc2)oc2ccccc12 ?
> 13.1

Numbers sourced from ChEMBL document CHEMBL2169835.
